- subject-of-test: GDP-bound KRAS wild-type protein (Homo sapiens, UniProt P01116)
- Sequence (P01116 whole entry): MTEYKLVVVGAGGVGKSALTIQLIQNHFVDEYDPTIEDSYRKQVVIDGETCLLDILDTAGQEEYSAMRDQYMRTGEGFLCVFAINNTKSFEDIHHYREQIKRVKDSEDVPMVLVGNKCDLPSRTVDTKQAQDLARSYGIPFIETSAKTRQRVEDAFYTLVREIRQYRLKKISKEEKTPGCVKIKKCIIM
- measurement-protocol: Binding to KRAS by surface plasmon resonance (SPR), Single Cycle Kinetics
- setup-conditions: SPR, Single Cycle Kinetics, GDP-bound KRAS wild-type protein; read-out: KRAS KD
pKd: −log10 of the molar value. Where a SMILES comes first, the peptide text is derived from it. Bridges are numbered along the chain shown (N, C = ends). [ ]: non-standard residue; d: D form. The star is where a group is joined. hPhe(3-Cl-4-CF3) = N[C@@H](CCc1ccc(C(F)(F)F)c(Cl)c1)C(=O)O; NPrPhe(4-CF3) = CCCN[C@@H](Cc1ccc(C(F)(F)F)cc1)C(=O)O; NMeGly(cPent) = CN[C@H](C(=O)O)C1CCCC1; NMeD = CN[C@@H](CC(=O)O)C(=O)O; NMeL = CN[C@@H](CC(C)C)C(=O)O; Morpholide = C1CN(*)CCO1; Ac4c = NC1(C(=O)O)CCC1; NEtG = CCNCC(=O)O; Sar = CNCC(=O)O
Measured pKd of individual entries

compound	subject-of-test	pKd
CCO[C@@H]1C[C@H]2C(=O)N(C)C3(CCC3)C(=O)N(C)[C@@H](C3CCCC3)C(=O)N(C)[C@H](C(=O)N(C)C)CC(=O)N(C)[C@@H](CC(C)C)C(=O)N[C@@H]([C@@H](C)CC)C(=O)N(C)CC(=O)N(C)[C@H]3C/C=C\CCN(C3=O)[C@@H](Cc3ccc(C)cc3)C(=O)N(C)CC(=O)N[C@@H](CCc3cc(F)c(C(F)(F)F)c(F)c3)C(=O)N2C1 [PP1790]	GDP-bound KRAS wild-type protein (Homo sapiens, UniProt P01116)	10.52
CCO[C@@H]1C[C@H]2C(=O)N[C@]3(C)CCCCCC[C@@H](C(=O)N[C@@H]([C@@H](C)CC)C(=O)N(C)CC(=O)N(C)[C@H]4CCCCN(C4=O)[C@@H](Cc4ccc(C(F)(F)F)cc4)C(=O)N(C)CC(=O)N[C@@H](CCc4cc(F)c(C(F)(F)F)c(F)c4)C(=O)N2C1)N(C)C(=O)C[C@@H](C(=O)N1CCOCC1)N(C)C(=O)[C@H](C1CCCC1)N(C)C3=O [PP0992]	GDP-bound KRAS wild-type protein (Homo sapiens, UniProt P01116)	8.34
CCO[C@@H]1C[C@H]2C(=O)NC3(CCC3)C(=O)N(C)[C@@H](C3CCCC3)C(=O)N(C)[C@H](C(=O)N3CCCC3)CC(=O)N(C)[C@H]3CCCCC/C=C/c4ccc(cc4)C[C@@H](C(=O)N(C)CC(=O)N[C@@H](CCc4ccc(Cl)c(Cl)c4)C(=O)N2C1)N1CC/C=C\C[C@@H](C1=O)N(C)C(=O)CN(C)C(=O)[C@H]([C@@H](C)CC)NC3=O [PP3049]	GDP-bound KRAS wild-type protein (Homo sapiens, UniProt P01116)	9.70
CCO[C@@H]1C[C@H]2C(=O)NC3(CC(F)(F)C3)C(=O)N(C)[C@@H](C(CC)CC)C(=O)N(C)[C@H](CC)CC(=O)N(C)[C@@H](CC3CC3)C(=O)N[C@@H]([C@@H](C)CC)C(=O)N(C)CC(=O)N(C)[C@H]3C/C=C\CCN(C3=O)[C@@H](Cc3ccc(C(F)(F)F)cc3)C(=O)N(C)CC(=O)N[C@@H](CCc3cc(F)c(C(F)(F)F)c(F)c3)C(=O)N2C1 [PP1632]	GDP-bound KRAS wild-type protein (Homo sapiens, UniProt P01116)	8.43
CC[C@H](C)[C@@H]1NC(=O)[C@H](C2CC2)N(C)C(=O)C[C@@H](C(=O)N(C)C)N(C)C(=O)[C@H](C2CCCC2)N(C)C(=O)C2(CCCC2)N(C)C(=O)[C@@H]2CCCN2C(=O)[C@H](CCc2cc(F)c(C(F)(F)F)c(F)c2)NC(=O)CN(C)C(=O)[C@H](Cc2ccc(C)cc2)N2CC/C=C\C[C@@H](C2=O)N(C)C(=O)CN(C)C1=O [PP1809]	GDP-bound KRAS wild-type protein (Homo sapiens, UniProt P01116)	9.92
CCO[C@@H]1C[C@H]2C(=O)NC3(CCC3)C(=O)N(C)[C@@H](C3CCCC3)C(=O)N(C)[C@H](C(=O)N3CCOCC3)CC(=O)N(C)[C@@H](Cc3cccs3)C(=O)N[C@@H]([C@@H](C)CC)C(=O)N(C)CC(=O)N(C)[C@H]3CCCCCN(C3=O)[C@@H](Cc3ccc(F)cc3)C(=O)N(C)CC(=O)N[C@@H](CCc3cc(F)c(C(F)(F)F)c(F)c3)C(=O)N2C1 [PP1183]	GDP-bound KRAS wild-type protein (Homo sapiens, UniProt P01116)	9.59
CCCN1C(=O)CN(CC)C(=O)CN(C)C(=O)[C@H]([C@@H](C)CC)NC(=O)[C@H](CC(C)C)N(C)C(=O)C[C@@H](C(=O)N2CCOCC2)N(C)C(=O)[C@H](C2CCCC2)N(C)C(=O)C2(CCC2)NC(=O)[C@@H]2CCCN2C(=O)[C@H](CCc2ccc(C(F)(F)F)c(Cl)c2)NC(=O)CN(C)C(=O)[C@@H]1Cc1ccc(C(F)(F)F)cc1 [PP1948] ([NMeL]I[Sar][NEtG][NPrPhe(4-CF3)][Sar][hPhe(3-Cl-4-CF3)]P[Ac4c][NMeGly(cPent)][NMeD]-Morpholide; lactam N-11)	GDP-bound KRAS wild-type protein (Homo sapiens, UniProt P01116)	9.39
CC[C@H](C)[C@@H]1NC(=O)[C@H](CC(C)C)N(C)C(=O)C[C@@H](C(=O)N2CCOCC2)N(C)C(=O)[C@H](C2CCCC2)N(C)C(=O)C2(CCC2)NC(=O)[C@@H]2[C@@H](O)CCN2C(=O)[C@H](CCc2cc(F)c(C(F)(F)F)c(F)c2)NC(=O)CN(C)C(=O)[C@H](Cc2ccc(C(F)(F)F)cc2)N2CCCC[C@@H](C2=O)N(C)C(=O)CN(C)C1=O [PP0869]	GDP-bound KRAS wild-type protein (Homo sapiens, UniProt P01116)	10.25
CCC[C@H]1C(=O)N[C@@H]([C@@H](C)CC)C(=O)N(C)CC(=O)N(C)[C@H]2C/C=C\CCN(C2=O)[C@@H](Cc2ccc(C)cc2)C(=O)N(C)CC(=O)N[C@@H](CCc2ccc(Cl)c(Cl)c2)C(=O)N2C[C@H](OCC)C[C@H]2C(=O)NC2(CC(C)(C)C2)C(=O)N(C)[C@@H](C(CC)CC)C(=O)N(C)[C@H](C(=O)N(C)C)CC(=O)N1C [PP2184]	GDP-bound KRAS wild-type protein (Homo sapiens, UniProt P01116)	9.15
CCCN(C)C(=O)[C@@H]1CC(=O)N(C)[C@@H](CC(F)F)C(=O)N[C@@H]([C@@H](C)CC)C(=O)N(C)CC(=O)N(C)[C@H]2C/C=C\CCN(C2=O)[C@@H](Cc2ccc(C(F)(F)F)cc2)C(=O)N(C)CC(=O)N[C@@H](CCc2cc(F)c(C(F)(F)F)c(F)c2)C(=O)N2C[C@@H](C)C[C@H]2C(=O)NC2(CC(C)(C)C2)C(=O)N(C)[C@@H](C2CCCC2)C(=O)N1C [PP2040]	GDP-bound KRAS wild-type protein (Homo sapiens, UniProt P01116)	9.51
CCO[C@@H]1C[C@H]2C(=O)NC3(CC(C)(C)C3)C(=O)N(C)[C@@H](C3CCCC3)C(=O)N(C)[C@H](C(=O)N3CCCC3)CC(=O)N(C)[C@H]3CCCCCc4ccc(cc4)C[C@@H](C(=O)N(C)CC(=O)N[C@@H](CCc4ccc(C(F)(F)F)c(OC)c4)C(=O)N2C1)N1CC/C=C\C[C@@H](C1=O)N(C)C(=O)CN(C)C(=O)[C@H]([C@@H](C)CC)NC3=O [PP3037]	GDP-bound KRAS wild-type protein (Homo sapiens, UniProt P01116)	9.96
